Provenance of the data: patent US20210122730A1

experimental_system: CYP2C8 (Homo sapiens, UniProt P10632)
Construct: Pooled human microsomes were obtained from Sekisui XenoTech, KS; tissue Sekisui XenoTech, KS; host or cells: pooled human liver microsomes
Sequence (P10632 1-490): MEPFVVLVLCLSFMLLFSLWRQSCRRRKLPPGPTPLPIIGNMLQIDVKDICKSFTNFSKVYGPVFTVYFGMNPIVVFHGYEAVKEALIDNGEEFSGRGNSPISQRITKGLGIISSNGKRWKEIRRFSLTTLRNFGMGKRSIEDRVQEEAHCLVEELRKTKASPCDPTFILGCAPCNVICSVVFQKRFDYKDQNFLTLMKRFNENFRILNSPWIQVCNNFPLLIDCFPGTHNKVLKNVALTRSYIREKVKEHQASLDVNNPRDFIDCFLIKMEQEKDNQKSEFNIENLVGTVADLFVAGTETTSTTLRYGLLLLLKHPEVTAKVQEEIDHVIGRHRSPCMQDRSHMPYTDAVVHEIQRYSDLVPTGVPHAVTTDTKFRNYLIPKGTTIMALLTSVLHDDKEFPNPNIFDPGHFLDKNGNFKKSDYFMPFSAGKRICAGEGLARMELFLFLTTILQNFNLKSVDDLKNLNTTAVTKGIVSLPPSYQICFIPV
experimental_details: CYP Inhibition Assay (CYP2C8, human liver microsomes, paclitaxel substrate)
Assay type: in vitro ADME
measurement_conditions: pH 7.4; pooled human liver microsomes 0.1 mg/mL, probe substrate paclitaxel

>  <compound>
Cn1cnc(S(=O)(=O)N(CCF)[C@H]2CCC3=Cc4c(cnn4-c4ccc(F)cc4)C[C@]3(C(=O)c3ncc(C(F)(F)F)s3)C2)n1 [Example 112]

>  <experimental_system>
CYP2C8 (Homo sapiens, UniProt P10632)

>  <inhibition at 5 min>
75 to 90%

$$$$
>  <compound>
CC(C)N([C@H]1CCC2=Cc3c(cnn3-c3ccc(F)cc3)C[C@]2(C(=O)c2cc(F)ccn2)C1)S(=O)(=O)c1cn(C)nn1 [Example 295]

>  <experimental_system>
CYP2C8 (Homo sapiens, UniProt P10632)

>  <inhibition at 5 min>
50 to 75%

$$$$
>  <compound>
Cn1ccc(S(=O)(=O)N(CC2(O)CC2)[C@H]2CCC3=Cc4c(cnn4-c4ccc(F)cc4)C[C@]3(C(=O)c3ncc(C(F)(F)F)s3)C2)n1 [Example 251]

>  <experimental_system>
CYP2C8 (Homo sapiens, UniProt P10632)

>  <inhibition at 5 min>
50 to 75%

$$$$
